Target: AhR (Homo sapiens)
Construct: One of the resultant clones was named HEK-XRE 11.1, and used in the reporter gene assays; endogenous in cells; host or cells: HEK-XRE 11.1 (HEK cells stably carrying the AhR-responsive luciferase reporter X4-4.27 and phRL-CMV)
Assay: Inhibition of AhR-mediated gene transcription (HEK-XRE 11.1 luciferase reporter, MeBIO induction)
Type: cell-based
Conditions: HEK-XRE 11.1 cells, MeBIO 0.1 nM, luminescence after 24 hours; Table 1
pIC50: −log10 of the molar value.
experimental_endpoint: pIC50

## Input Given Nc1c(C(=O)Nc2ccc3c(c2)OCCO3)sc2ncc(C(F)(F)F)cc12 [Compound 1099] , state its recorded pIC50.
## Output 6.30 to 7.30

## Input Now the compound Nc1c(C(=O)Nc2ccc(S(N)(=O)=O)cc2)sc2ncc(C(F)(F)F)cc12 [Compound 1127]
## Output 6.30 to 7.30

## Input Now the compound N#CCc1ccc(NC(=O)c2sc3ncc(C(F)(F)F)cc3c2N)cc1 [Compound 1038]
## Output > 7.30

## Input Now the compound Cc1cnc2sc(C(=O)Nc3ccc(OC(F)(F)F)cc3)c(N)c2c1 [Compound 1149]
## Output > 7.30

## Input Now the compound Cc1cnc2sc(C(=O)Nc3ccc(Cl)cc3)c(N)c2c1 [Compound 1068]
## Output > 7.30

## Input Now the compound CSc1ccc(NC(=O)c2sc3ncc(C(F)(F)F)cc3c2N)cc1 [Compound 1133]
## Output > 7.30

## Input Now the compound COc1ccc(NC(=O)c2sc3ncc(C(F)(F)F)cc3c2N)cc1Cl [Compound 1087]
## Output > 7.30

====

Biological target: AhR (Homo sapiens, UniProt P35869)
Construct: One of the resultant clones was named HEK-XRE 11.1, and used in the reporter gene assays; endogenous in cells; host or cells: HEK-XRE 11.1 (HEK cells stably carrying the AhR-responsive luciferase reporter X4-4.27 and phRL-CMV)
Sequence (P35869 11-848): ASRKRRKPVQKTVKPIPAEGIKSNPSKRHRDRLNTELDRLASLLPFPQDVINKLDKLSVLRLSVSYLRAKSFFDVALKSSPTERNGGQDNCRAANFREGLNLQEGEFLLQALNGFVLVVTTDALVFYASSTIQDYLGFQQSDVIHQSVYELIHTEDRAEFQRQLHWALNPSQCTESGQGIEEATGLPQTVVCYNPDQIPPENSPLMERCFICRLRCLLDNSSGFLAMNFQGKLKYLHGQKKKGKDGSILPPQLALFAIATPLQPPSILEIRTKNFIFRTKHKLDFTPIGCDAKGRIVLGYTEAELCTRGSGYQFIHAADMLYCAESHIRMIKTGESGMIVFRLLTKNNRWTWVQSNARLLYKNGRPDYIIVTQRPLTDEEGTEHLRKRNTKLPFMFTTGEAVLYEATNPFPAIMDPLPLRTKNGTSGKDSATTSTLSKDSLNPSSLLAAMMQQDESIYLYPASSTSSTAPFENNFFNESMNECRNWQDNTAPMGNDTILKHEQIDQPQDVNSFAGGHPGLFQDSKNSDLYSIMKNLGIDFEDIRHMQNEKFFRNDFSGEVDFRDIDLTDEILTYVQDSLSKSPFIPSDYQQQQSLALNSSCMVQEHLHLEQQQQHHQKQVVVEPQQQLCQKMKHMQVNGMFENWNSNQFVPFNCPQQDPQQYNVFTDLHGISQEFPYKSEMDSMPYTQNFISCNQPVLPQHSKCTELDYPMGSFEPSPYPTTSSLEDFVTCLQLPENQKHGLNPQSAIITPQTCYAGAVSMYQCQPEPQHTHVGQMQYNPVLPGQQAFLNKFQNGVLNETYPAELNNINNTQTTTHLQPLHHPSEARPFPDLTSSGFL
Assay: Inhibition of AhR-mediated gene transcription (HEK-XRE 11.1 luciferase reporter, MeBIO induction)
Format: cell-based
Conditions: HEK-XRE 11.1 cells, MeBIO 0.1 nM, luminescence after 24 hours; Table 1
experimental_endpoint: IC50

Worked set:
{"chemical_string": "Cc1cnc(NC(=O)c2sc3ncc(C(F)(F)F)cc3c2N)s1", "IC50": "50 to 500 nM"}
{"chemical_string": "COc1ccc(NC(=O)c2sc3ccc(C(F)(F)F)cc3c2N)cc1", "IC50": "50 to 500 nM"}

## Input Given Cc1ccc2sc(C(=O)Nc3ccc(Cl)cc3)c(N)c2c1 , state its recorded IC50.
## Output 50 to 500 nM

## Input Now the molecule Nc1c(C(=O)Nc2ccncc2)sc2ncc(C(F)(F)F)cc12
## Output > 500 nM

## Input Now the molecule Nc1c(C(=O)Nc2ccc3ncccc3c2)sc2ncc(C(F)(F)F)cc12
## Output 50 to 500 nM

## Input Now the molecule Nc1c(C(=O)Nc2ccc(OCc3ccccc3)cc2)sc2ncc(C(F)(F)F)cc12
## Output 50 to 500 nM

## Input Now the molecule Nc1c(C(=O)Nc2cccc(F)c2)sc2ncc(C(F)(F)F)cc12
## Output < 50 nM

## Input Now the molecule Nc1c(C(=O)Nc2cccc(-c3ccccc3)c2)sc2ncc(C(F)(F)F)cc12
## Output 50 to 500 nM

## Input Now the molecule Cc1ccc2sc(C(=O)Nc3ccc(OC(F)(F)F)cc3)c(N)c2c1
## Output 50 to 500 nM
